Tested on: S. epidermidis PCM 2118
Experiment: MIC, broth microdilution
Type: cell-based, Staphylococcus epidermidis
Conditions: S. epidermidis PCM 2118, 24 h
Where a SMILES comes first, the peptide text is derived from it. [ ]: non-standard residue; d: D form. The star is where a group is joined. Palmitoyl = CCCCCCCCCCCCCCCC(=O)*; AEEA = NCCOCCOCC(=O)O; βAla = NCCC(=O)O
measured_quantity: MIC100 (µg/mL)

[[record]]
compound = "CCCCCCCCCCCCCCCC(=O)NCCC(=O)N[C@@H](Cc1c[nH]cn1)C(=O)NCCOCCOCC(=O)N[C@H](C(=O)N[C@@H](CCCCN)C(=O)N[C@@H](CCCCN)C(=O)N[C@H](C(=O)N[C@@H](CC(C)C)C(=O)N[C@@H](CO)C(=O)N[C@@H](CCCCN)C(=O)N[C@H](C(=O)N[C@@H](CCCCN)C(=O)N[C@@H](CCCCN)C(=O)N[C@@H](CC(C)C)C(=O)N[C@@H](CC(C)C)C(N)=O)[C@@H](C)CC)[C@@H](C)CC)[C@@H](C)CC [C16-CAR-PEG-DK5] ({Palmitoyl-βAla}-H[AEEA]IKKILSKIKKLL-NH2)"
target_under_test = "S. epidermidis PCM 2118"
unit_abbrev = "µg/mL"
numeric_value = 25


Cited source: paper PMC8269107
